// reported MIC for each item listed
# System: Staphylococcus epidermidis
# testDescription: Antibacterial activity against linezolid-resistant Staphylococcus epidermidis (14-583) assessed as inhibition of microbial growth incubated for 24 hrs by microdilution assay
# Assay type: functional
quantityName: MIC (µg/mL)

molecule: C[C@H]1COc2c(N3CCN(C)CC3)c(F)cc3c(=O)c(C(=O)O)cn1c23.C[C@H]1COc2c(N3CCN(C)CC3)c(F)cc3c(=O)c(C(=O)O)cn1c23.O
unitsText: µg/mL
inequalitySymbol: =
reportedValue: 12.5
--
molecule: COc1cc(C[C@@H](C)[C@@H](C)Cc2ccc(OCCN3CCCCC3)c(OC)c2)ccc1O (racemic)
unitsText: µg/mL
inequalitySymbol: =
reportedValue: 50
--
molecule: CCCCCCCCCCCCCCCC(=O)Oc1ccc(C[C@H](C)[C@H](C)Cc2ccc(O)c(OC)c2)cc1OC (racemic)
unitsText: µg/mL
inequalitySymbol: >
reportedValue: 50

Data origin, for the record: ChEMBL document CHEMBL4043204
